Target: T1, recombinant human ASM protein (human, UniProt P17405 47-630)
T1 construct: Recombinant human ASM in solution; also called acid sphingomyelinase (ASM) protein
T1 sequence: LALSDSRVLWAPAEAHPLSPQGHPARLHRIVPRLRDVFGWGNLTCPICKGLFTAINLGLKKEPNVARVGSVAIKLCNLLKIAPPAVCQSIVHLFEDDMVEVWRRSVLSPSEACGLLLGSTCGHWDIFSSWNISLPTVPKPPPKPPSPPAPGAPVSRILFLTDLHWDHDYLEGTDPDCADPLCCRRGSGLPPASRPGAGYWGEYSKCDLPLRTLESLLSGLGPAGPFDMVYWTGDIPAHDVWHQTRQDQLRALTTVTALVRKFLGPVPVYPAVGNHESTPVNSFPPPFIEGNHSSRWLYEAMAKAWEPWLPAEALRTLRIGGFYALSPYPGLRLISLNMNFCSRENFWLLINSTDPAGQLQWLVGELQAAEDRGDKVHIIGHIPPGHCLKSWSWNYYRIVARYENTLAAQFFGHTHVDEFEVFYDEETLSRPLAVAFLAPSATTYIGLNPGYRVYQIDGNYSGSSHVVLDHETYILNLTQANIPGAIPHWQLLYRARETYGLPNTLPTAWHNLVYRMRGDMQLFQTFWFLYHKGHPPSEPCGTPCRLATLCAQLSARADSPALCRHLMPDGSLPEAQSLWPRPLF
Assay: BLI (Octet), antibody on AHC sensor
Measurement kind: Kd
Show the value, then the unit it is measured in.

Request: Need Kd of #9104v-L15 (antibody, human IgG4 S228P, lambda, V domains shown, Full-length IgG, lambda) VH: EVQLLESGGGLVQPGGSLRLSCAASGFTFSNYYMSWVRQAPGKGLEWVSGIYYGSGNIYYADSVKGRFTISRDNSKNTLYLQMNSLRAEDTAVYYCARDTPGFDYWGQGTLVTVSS VL: QSVLTQPPSASGTPGQRVTISCTGSSSNIGNNAVNWYQQLPGTAPKLLIYYDIHRPYGVPDRFSGSKSGTSASLAISGLRSEDEADYYCGAWDYSLSAYVFGGGTKLTVLG , thanks.
Result: 0.992 nM

Request: Need Kd of #9104v-L12 (antibody, human IgG4 S228P, lambda, V domains shown, Full-length IgG, lambda) VH: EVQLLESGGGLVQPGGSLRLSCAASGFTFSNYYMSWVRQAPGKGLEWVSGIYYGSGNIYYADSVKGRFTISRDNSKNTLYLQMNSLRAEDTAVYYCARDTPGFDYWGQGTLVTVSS VL: QSVLTQPPSASGTPGQRVTISCTGSSSNIGNNAVNWYQQLPGTAPKLLIYYDIFRPDGVPDRFSGSKSGTSASLAISGLRSEDEADYYCGAWDYSLSAYVFGGGTKLTVLG , thanks.
Result: 0.718 nM

Request: Need Kd of #9104v-L52 (antibody, human IgG4 S228P, lambda, V domains shown, Full-length IgG, lambda) VH: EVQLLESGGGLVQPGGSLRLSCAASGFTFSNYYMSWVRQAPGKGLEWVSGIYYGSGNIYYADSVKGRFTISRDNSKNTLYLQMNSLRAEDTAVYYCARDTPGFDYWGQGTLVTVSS VL: QSVLTQPPSASGTPGQRVTISCTGSSSNIGNNAVNWYQQLPGTAPKLLIYYDVHRPRGVPDRFSGSKSGTSASLAISGLRSEDEADYYCGAWDYSLSAYVFGGGTKLTVLG , thanks.
Result: 0.982 nM

Request: Need Kd of #9104v-L55 (antibody, human IgG4 S228P, lambda, V domains shown, Full-length IgG, lambda) VH: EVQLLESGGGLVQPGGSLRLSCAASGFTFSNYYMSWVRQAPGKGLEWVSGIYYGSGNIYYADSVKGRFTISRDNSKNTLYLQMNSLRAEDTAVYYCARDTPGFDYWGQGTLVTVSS VL: QSVLTQPPSASGTPGQRVTISCTGSSSNIGNNAVNWYQQLPGTAPKLLIYYDWYRPTGVPDRFSGSKSGTSASLAISGLRSEDEADYYCGAWDYSLSAYVFGGGTKLTVLG , thanks.
Result: 0.879 nM

Request: Need Kd of #9104v-L33 (antibody, human IgG4 S228P, lambda, V domains shown, Full-length IgG, lambda) VH: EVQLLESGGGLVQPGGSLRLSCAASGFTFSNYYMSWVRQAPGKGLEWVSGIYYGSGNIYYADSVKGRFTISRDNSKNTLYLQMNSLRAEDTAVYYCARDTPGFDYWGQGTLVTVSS VL: QSVLTQPPSASGTPGQRVTISCTGSSSNIGNNAVNWYQQLPGTAPKLLIYYDSYPPYGVPDRFSGSKSGTSASLAISGLRSEDEADYYCGAWDYSLSAYVFGGGTKLTVLG , thanks.
Result: 1.27 nM

Request: Need Kd of #9104v-L29 (antibody, human IgG4 S228P, lambda, V domains shown, Full-length IgG, lambda) VH: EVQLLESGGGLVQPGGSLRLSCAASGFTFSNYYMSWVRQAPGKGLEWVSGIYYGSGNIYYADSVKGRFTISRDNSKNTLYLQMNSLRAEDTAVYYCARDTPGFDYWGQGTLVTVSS VL: QSVLTQPPSASGTPGQRVTISCTGSSSNIGNNAVNWYQQLPGTAPKLLIYYDSFRSTGVPDRFSGSKSGTSASLAISGLRSEDEADYYCGAWDYSLSAYVFGGGTKLTVLG , thanks.
Result: 1.07 nM

Request: Need Kd of #9104v-L49 (antibody, human IgG4 S228P, lambda, V domains shown, Full-length IgG, lambda) VH: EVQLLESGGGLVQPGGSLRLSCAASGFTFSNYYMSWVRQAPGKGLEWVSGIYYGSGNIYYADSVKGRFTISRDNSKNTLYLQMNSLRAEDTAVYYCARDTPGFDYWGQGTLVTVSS VL: QSVLTQPPSASGTPGQRVTISCTGSSSNIGNNAVNWYQQLPGTAPKLLIYYDTFRPTGVPDRFSGSKSGTSASLAISGLRSEDEADYYCGAWDYSLSAYVFGGGTKLTVLG , thanks.
Result: 0.785 nM

Request: Need Kd of #9104v-L23 (antibody, human IgG4 S228P, lambda, V domains shown, Full-length IgG, lambda) VH: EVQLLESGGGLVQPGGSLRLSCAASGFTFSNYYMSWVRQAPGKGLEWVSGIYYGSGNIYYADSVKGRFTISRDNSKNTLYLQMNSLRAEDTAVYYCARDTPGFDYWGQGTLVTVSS VL: QSVLTQPPSASGTPGQRVTISCTGSSSNIGNNAVNWYQQLPGTAPKLLIYYDQFRPSGVPDRFSGSKSGTSASLAISGLRSEDEADYYCGAWDYSLSAYVFGGGTKLTVLG , thanks.
Result: 0.817 nM

Request: Need Kd of #9104v-L63 (antibody, human IgG4 S228P, lambda, V domains shown, Full-length IgG, lambda) VH: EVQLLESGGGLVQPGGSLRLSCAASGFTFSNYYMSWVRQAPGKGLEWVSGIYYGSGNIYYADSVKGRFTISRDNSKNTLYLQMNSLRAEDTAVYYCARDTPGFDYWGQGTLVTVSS VL: QSVLTQPPSASGTPGQRVTISCTGSSSNIGNNAVNWYQQLPGTAPKLLIYYDSHRPSGVPDRFSGSKSGTSASLAISGLRSEDEADYYCGAWDYWLGAYVFGGGTKLTVLG , thanks.
Result: 1.41 nM
